Recorded DC50 by entry
# subject.of.test: SMARCA2 (Homo sapiens)
# Sequence (P51531 whole entry): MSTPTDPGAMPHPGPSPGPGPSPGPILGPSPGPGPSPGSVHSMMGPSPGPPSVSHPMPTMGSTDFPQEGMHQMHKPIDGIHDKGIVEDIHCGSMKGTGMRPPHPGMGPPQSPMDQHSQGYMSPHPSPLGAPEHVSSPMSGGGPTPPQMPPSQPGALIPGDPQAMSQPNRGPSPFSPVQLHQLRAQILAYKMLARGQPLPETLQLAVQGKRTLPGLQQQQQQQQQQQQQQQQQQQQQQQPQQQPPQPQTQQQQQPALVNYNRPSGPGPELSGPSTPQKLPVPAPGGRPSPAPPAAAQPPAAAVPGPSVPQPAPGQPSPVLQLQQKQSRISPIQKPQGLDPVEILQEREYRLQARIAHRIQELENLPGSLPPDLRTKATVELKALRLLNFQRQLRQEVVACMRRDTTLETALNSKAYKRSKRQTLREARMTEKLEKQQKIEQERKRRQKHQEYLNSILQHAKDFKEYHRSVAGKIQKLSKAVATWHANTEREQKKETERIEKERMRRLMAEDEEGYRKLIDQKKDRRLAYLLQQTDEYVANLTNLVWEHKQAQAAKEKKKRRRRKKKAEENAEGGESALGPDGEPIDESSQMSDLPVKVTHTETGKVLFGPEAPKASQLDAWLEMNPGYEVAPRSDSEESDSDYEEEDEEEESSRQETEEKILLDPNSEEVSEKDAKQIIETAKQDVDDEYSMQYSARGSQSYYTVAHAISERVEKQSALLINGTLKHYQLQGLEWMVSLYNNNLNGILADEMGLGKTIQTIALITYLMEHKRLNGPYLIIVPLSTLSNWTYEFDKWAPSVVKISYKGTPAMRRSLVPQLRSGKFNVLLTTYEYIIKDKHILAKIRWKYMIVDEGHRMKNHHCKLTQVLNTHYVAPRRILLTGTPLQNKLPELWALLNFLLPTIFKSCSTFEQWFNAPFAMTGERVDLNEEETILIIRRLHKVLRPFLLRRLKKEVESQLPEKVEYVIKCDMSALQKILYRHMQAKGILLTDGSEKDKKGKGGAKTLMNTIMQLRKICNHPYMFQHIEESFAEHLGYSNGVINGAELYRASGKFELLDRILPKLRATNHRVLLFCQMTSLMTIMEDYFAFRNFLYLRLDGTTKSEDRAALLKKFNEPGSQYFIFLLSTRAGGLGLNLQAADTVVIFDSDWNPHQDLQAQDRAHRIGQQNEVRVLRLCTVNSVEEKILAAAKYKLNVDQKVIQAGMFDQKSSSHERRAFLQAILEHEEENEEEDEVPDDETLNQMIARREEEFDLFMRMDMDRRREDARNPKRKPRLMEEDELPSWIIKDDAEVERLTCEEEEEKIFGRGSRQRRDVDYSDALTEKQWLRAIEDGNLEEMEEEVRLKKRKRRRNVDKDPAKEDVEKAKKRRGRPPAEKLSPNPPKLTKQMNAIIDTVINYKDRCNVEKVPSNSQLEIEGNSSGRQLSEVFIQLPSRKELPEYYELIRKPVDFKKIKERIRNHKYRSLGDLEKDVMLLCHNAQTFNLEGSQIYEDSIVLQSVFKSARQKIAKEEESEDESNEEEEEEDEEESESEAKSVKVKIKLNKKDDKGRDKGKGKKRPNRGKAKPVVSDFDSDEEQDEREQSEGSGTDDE
# test: MSD SMARCA2 degradation in NCI-H1299 cell line (24 h)
# Type: cell-based
# Set-up: HC: NCI-H1299 cells treated with DMSO; host or cells: NCI-H1299
# setup.conditions: NCI-H1299 cells, read-out: SMARCA2 MSD H1299 degradation 24 h: External Abs-DC50

Some entries whose results are on file:
compound	result
Cn1c(=O)n(C2CCC(=O)NC2=O)c2ccc(CCC(=O)N3CCC(c4cnc(N5C6CCC5CN(c5cc(-c7ccccc7O)nnc5N)C6)nc4)CC3)cc21 (stereo not drawn)	0.1 to 0.5 µM
CN[C@@H](C)C(=O)N[C@H](C(=O)N1Cc2cc(OCCOCCOCCOCCOCCNC(=O)c3ccc(C(C)n4cc(-c5cc(-c6ccccc6O)nnc5N)cn4)cc3)ccc2C[C@H]1C(=O)N[C@@H]1CCCc2ccccc21)C(C)(C)C (stereo partly drawn)	> 1 µM
Cc1ncsc1-c1ccc(CNC(=O)[C@@H]2C[C@@H](O)CN2C(=O)[C@@H](NC(=O)COCCOCCOCCOCCNC(=O)CCCOc2cccc(N3C[C@H]4C[C@@H]3CN4/C=C/C(=O)c3ccccc3O)n2)C(C)(C)C)cc1	> 1 µM
Cn1c(=O)n(C2CCC(=O)NC2=O)c2cccc(CCCCCCCc3cn(Cc4cccc(N5C[C@H]6C[C@@H]5CN6/C=C/C(=O)c5ccccc5O)n4)nn3)c21 (stereo partly drawn)	> 1 µM
Cn1c(=O)n(C2CCC(=O)NC2=O)c2ccc(CCCCCCCCN3CCC(Cn4cc(-c5cc(-c6ccccc6O)nnc5N)cn4)CC3)cc21 (stereo not drawn)	0.1 to 0.5 µM

Let us examine a further case.
Specify measured DC50 for Cn1c(=O)n(C2CCC(=O)NC2=O)c2ccc(CCCCCCCN3CCC(n4cc(-c5cc(-c6ccccc6O)nnc5N)cn4)CC3)cc21 (stereo not drawn) . > 1 µM
